# Test system: MDA-MB-468 breast
# protocol text: NCI tumour cell line growth inhibition, 48 h; in the data active = GI50 below about 0.43 µM; inactive = the rest
Where a SMILES comes first, the peptide text is derived from it. [ ]: non-standard residue; d: D form. The star is where a group is joined. ξ: configuration not given here. X6 = FC(F)(F)c1cc(NC(=S)*)cc(C(F)(F)F)c1; ξF = NC(Cc1ccccc1)C(=O)O
Classes used: active, inactive

[
  {
    "compound": "CN(C)c1nc(NCCNS(=O)(=O)c2ccc(C(=O)/C=C/c3ccc(C(F)(F)F)cc3)cc2)nc(N2CCOCC2)n1",
    "class label": "inactive"
  },
  {
    "compound": "CCC(CO)Nc1nc2ccc(Cl)cc2c2ccccc12 (centres undefined)",
    "class label": "inactive"
  },
  {
    "compound": "NC(=O)c1cccc2cn(-c3ccc([C@@H]4CCCNC4)cc3)nc12",
    "class label": "inactive"
  },
  {
    "compound": "COC(=O)[C@@H](NC(=O)CNC(=O)[C@H]1CCCN1C(=O)C(Cc1ccccc1)NC(=S)Nc1cc(C(F)(F)F)cc(C(F)(F)F)c1)C(C)C (some centres undefined) (X6-[ξF][dP]GV-OMe)",
    "class label": "inactive"
  },
  {
    "compound": "Nc1nc(-c2cccc([N+](=O)[O-])c2)c(N=Nc2cccc([N+](=O)[O-])c2)s1",
    "class label": "inactive"
  },
  {
    "compound": "CC/C=C\\CCC/C=C1/C(=O)C=C[C@@H]1C/C=C\\CCCC(=O)OC",
    "class label": "inactive"
  },
  {
    "compound": "COc1ccc2c(C3=C(c4cn(C)c5ccccc45)C(=O)NC3=O)cn(C)c2c1",
    "class label": "active"
  },
  {
    "compound": "Cc1nc2ccccc2c(N)c1-c1cc(C)c2c(C)nc3ccccc3c2n1",
    "class label": "inactive"
  },
  {
    "compound": "C#Cc1ccc(-n2c(/C=C/c3ccc(C(F)(F)F)cc3)nc3ncccc3c2=O)cc1",
    "class label": "inactive"
  }
]
